Listing of recorded log10(Ki) by entry.
# measuredOn: Serotonin 3 (5-HT3) receptor (Rattus norvegicus, UniProt P35563+Q9JJ16)
# Sequence (P35563 whole entry): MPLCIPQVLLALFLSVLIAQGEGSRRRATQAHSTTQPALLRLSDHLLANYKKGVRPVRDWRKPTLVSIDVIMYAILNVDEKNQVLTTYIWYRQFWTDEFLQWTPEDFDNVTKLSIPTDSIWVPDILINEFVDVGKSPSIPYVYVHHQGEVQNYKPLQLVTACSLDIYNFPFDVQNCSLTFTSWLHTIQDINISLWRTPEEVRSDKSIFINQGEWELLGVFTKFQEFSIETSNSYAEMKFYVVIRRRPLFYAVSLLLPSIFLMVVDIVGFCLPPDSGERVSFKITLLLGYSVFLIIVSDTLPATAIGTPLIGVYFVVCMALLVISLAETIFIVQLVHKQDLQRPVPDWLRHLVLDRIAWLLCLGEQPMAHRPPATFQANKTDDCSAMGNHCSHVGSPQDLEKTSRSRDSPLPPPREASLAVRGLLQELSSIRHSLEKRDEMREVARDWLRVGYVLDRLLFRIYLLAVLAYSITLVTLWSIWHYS
# Sequence (Q9JJ16 whole entry): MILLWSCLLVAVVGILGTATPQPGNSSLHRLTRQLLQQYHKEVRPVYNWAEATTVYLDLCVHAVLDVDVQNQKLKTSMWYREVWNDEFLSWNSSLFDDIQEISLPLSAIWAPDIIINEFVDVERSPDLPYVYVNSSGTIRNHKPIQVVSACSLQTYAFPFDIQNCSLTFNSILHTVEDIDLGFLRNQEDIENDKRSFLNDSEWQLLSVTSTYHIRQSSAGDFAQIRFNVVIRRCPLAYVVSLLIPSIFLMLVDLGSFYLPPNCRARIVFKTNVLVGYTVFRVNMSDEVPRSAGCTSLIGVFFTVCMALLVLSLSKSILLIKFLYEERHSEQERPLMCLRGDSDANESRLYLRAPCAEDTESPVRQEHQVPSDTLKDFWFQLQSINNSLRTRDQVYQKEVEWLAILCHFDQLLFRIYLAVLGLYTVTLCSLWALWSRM
# protocolDescription: Concentration that inhibits the binding of radioligand, [3H]-ICS 205930, to 5-hydroxytryptamine 3 receptor from rat cortex
Transform log10 | Measure Ki | Unit nM

Sample Cc1cccc2[nH]c(=O)n(C(=O)OC3CC4CCC(C3)N4C)c12 (stereo unspecified) — what was its log10(Ki)?
2.49

Same read-out for O=C(OC1CN2CCC1CC2)n1c(=O)[nH]c2ccccc21 (stereo unspecified) ?
1.21

Same read-out for O=C(NC1CN2CCC1CC2)n1c(=O)[nH]c2ccccc21 (stereo unspecified) ?
0.32

Same read-out for CN1C2CCC1CC(OC(=O)n1c(=O)n(C)c3ccccc31)C2 (stereo unspecified) ?
1.08

Same read-out for CN1C2CCC1CC(OC(=O)n1c(=O)[nH]c3cc(F)ccc31)C2 (stereo unspecified) ?
1.42

Same read-out for CN1C2CCC1CC(NC(=O)n1c(=O)[nH]c3ccccc31)C2 (stereo unspecified) ?
0.57
